From: paper PMC4805166

Tested on: erythrocyte suspensions of horse blood;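 note: Read-out is hemoglobin release into the supernatant, with a buffer-only blank subtracted as the 0% baseline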
measurement_context: 150 µM peptide; horse erythrocytes 5% vol/vol, TRIS buffer pH 7.2, 1 h at 37°C, absorbance 540 nm; relative to melittin 100 μM; ± confidence interval (α = 0.05)
Where a SMILES comes first, the peptide text is derived from it. The star is where a group is joined. Butyryl = CCCC(=O)*
measured_metric: Hemolysis (%) 150 µM

[
  {
    "compound": "CCCC(=O)NCCCC[C@@H]1NC(=O)[C@H](CCCCN)NC(=O)[C@H](CCC(N)=O)NC(=O)[C@H](CC(C)C)NC(=O)[C@H](CCCCN)NC(=O)[C@H](CCCCN)NC(=O)[C@H](Cc2c[nH]cn2)NC(=O)[C@H](CCCCN)NC(=O)[C@H](CCCCN)NC(=O)[C@H](CC(C)C)NC1=O [BPC720] (cyclo(HKKLQKK(Butyryl)LKK))",
    "target_or_system": "erythrocyte suspensions of horse blood",
    "data_value": 3
  },
  {
    "compound": "CCCC(=O)NCCCC[C@@H]1NC(=O)[C@H](CCC(N)=O)NC(=O)[C@H](CC(C)C)NC(=O)[C@H](CCCCN)NC(=O)[C@H](CCCCN)NC(=O)[C@H](Cc2ccccc2)NC(=O)[C@H](CCCCN)NC(=O)[C@H](CCCCN)NC(=O)[C@H](CC(C)C)NC(=O)[C@H](CCCCN)NC1=O [BPC710] (cyclo(FKKLQK(Butyryl)KLKK))",
    "target_or_system": "erythrocyte suspensions of horse blood",
    "data_value": 7
  },
  {
    "compound": "CC(C)C[C@@H]1NC(=O)[C@H](CCCCN)NC(=O)[C@H](CCCCN)NC(=O)[C@H](CCC(N)=O)NC(=O)[C@H](CC(C)C)NC(=O)[C@H](CCCCN)NC(=O)[C@H](CCCCN)NC(=O)[C@H](Cc2ccccc2)NC(=O)[C@H](CCCCN)NC(=O)[C@H](CCCCN)NC1=O [BPC194] (cyclo(FKKLQKKLKK))",
    "target_or_system": "erythrocyte suspensions of horse blood",
    "data_value": 4
  }
]
